Experimental system: pig TRPM8 (Sus scrofa)
Construct: expressed in transfected cells; host or cells: CHO (pcDNA5/FRT/TO vector; hygromycin B and blasticidin selection)
Protocol description: In vitro pig TRPM8 fluorescence calcium flux assay (recombinant CHO cells, Fluo4-AM, FDSS6000)
Type: cell-based
Experimental parameters: recombinant CHO cells expressing pig TRPM8; menthol-related EC50, normalized to 100 μM menthol
Exercise: state measured log10(EC50) for each of the molecules provided.
Answers are given as log10 of EC50 in nM.

Query :: Note log10(EC50) for the molecule shown: CC(C)[C@@H]1CC[C@@H](C)C[C@@]1(O)C(=O)N[C@H](CCO)c1ccccc1 [Example 86]
Result :: 2.87

Query :: Retrieve log10(EC50) measured for CC(C)[C@@H]1CC[C@@H](C)C[C@@]1(O)C(=O)NCC(F)(F)c1ccccc1 [Example 4] and print it.
Result :: 0.08

Query :: Please report log10(EC50) for the following molecule: CC(=O)O[C@H](CNC(=O)[C@]1(O)C[C@H](C)CC[C@H]1C(C)C)c1ccccc1 [Example 3]
Result :: 1.55

Query :: Fill in reported log10(EC50) for this entry: CC(C)[C@@H]1CC[C@@H](C)C[C@@]1(O)C(=O)NCC(=O)Oc1ccccc1 [Example 67]
Result :: 0.70

Query :: In one line, give reported log10(EC50) of the entry COc1cccc(CCNC(=O)[C@]2(O)C[C@H](C)CC[C@H]2C(C)C)c1OC [Example 115] .
Result :: 2.56

Query :: Identify measured log10(EC50) associated with CC(C)[C@@H]1CC[C@@H](C)C[C@@]1(O)C(=O)NCC1OC(=O)c2ccccc21 (mixture of isomers) [Example 18]
Result :: 2.38

Query :: Tell me log10(EC50) reported for CC(C)[C@@H]1CC[C@@H](C)C[C@@]1(O)C(=O)NCC(O)c1ccccc1O (some centres unmarked) [Example 35]
Result :: 0.48

Query :: Return the recorded log10(EC50) value; entry: COc1ccc(OC)c(CCNC(=O)[C@]2(O)C[C@H](C)CC[C@H]2C(C)C)c1 [Example 128]
Result :: 2.33

----------
For each record, write down the corresponding pEC50.
Experimental system: human TRPM8 (Homo sapiens, UniProt Q7Z2W7)
Construct: expressed in transfected cells; host or cells: CHO (p658 mammalian expression vector)
Sequence (Q7Z2W7 whole entry): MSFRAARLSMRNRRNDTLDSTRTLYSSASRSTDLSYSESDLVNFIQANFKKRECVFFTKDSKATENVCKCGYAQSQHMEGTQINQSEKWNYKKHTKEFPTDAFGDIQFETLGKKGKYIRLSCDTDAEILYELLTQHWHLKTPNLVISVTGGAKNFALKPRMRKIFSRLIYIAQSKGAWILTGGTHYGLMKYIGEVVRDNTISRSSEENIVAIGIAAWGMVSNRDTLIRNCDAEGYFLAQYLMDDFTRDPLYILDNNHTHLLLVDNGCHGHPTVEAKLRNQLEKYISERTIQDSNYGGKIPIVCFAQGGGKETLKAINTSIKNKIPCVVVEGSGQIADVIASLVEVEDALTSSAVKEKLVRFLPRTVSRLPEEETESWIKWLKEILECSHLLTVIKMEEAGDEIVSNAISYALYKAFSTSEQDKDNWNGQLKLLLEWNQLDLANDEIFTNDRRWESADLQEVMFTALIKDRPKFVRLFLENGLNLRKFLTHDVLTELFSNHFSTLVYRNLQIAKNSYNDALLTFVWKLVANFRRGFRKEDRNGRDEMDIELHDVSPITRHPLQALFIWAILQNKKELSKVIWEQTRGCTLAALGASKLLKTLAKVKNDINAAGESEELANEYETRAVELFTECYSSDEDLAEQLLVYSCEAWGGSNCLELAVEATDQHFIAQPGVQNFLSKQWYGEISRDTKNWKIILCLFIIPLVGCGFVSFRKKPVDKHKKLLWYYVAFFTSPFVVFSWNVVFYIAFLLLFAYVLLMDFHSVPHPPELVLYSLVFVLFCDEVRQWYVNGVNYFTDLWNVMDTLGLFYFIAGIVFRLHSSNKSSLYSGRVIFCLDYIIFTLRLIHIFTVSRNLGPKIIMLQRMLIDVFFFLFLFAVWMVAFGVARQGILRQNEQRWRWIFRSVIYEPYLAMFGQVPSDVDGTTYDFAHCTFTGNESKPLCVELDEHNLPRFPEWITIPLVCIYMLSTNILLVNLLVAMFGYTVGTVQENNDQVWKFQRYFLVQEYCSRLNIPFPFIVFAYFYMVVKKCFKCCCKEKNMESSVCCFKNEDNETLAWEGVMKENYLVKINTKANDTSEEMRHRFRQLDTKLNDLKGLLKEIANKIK
Protocol description: In vitro human TRPM8 fluorescence calcium flux assay (recombinant CHO cells, Fluo4-AM, FDSS6000)
Type: cell-based
Experimental parameters: recombinant CHO cells expressing human TRPM8; menthol-related EC50, normalized to 100 μM menthol
// pEC50 here means minus log10 of the molar concentration (mol/L)

Query :: Please indicate recorded pEC50 of CC(C)[C@@H]1CC[C@@H](C)C[C@@]1(O)C(=O)NCCc1ccccc1OC[C@@H](O)CO [Example 25] measured with human TRPM8 (Homo sapiens, UniProt Q7Z2W7).
Result :: 7.84

Query :: Please respond with reported pEC50 (system human TRPM8 (Homo sapiens, UniProt Q7Z2W7)) for [2H]C(O)(CNC(=O)[C@]1(O)C[C@H](C)CC[C@H]1C(C)C)c1ccccc1 (single isomer, unassigned) [Example 91] .
Result :: 7.72

Query :: Write down measured pEC50 (human TRPM8 (Homo sapiens, UniProt Q7Z2W7)) for this compound. COC(=O)COc1ccccc1C(O)CNC(=O)[C@]1(O)C[C@H](C)CC[C@H]1C(C)C (stereo partly shown) [Example 36]
Result :: 7.33

Query :: Write down the reported pEC50 (system: human TRPM8 (Homo sapiens, UniProt Q7Z2W7)) of COC(=O)COc1cccc(C(O)CNC(=O)[C@]2(O)C[C@H](C)CC[C@H]2C(C)C)c1 (stereo partly shown) [Example 33]
Result :: 7.19

Query :: Fill in: pEC50 on human TRPM8 (Homo sapiens, UniProt Q7Z2W7), entry CC(C)[C@@H]1CC[C@@H](C)C[C@@]1(O)C(=O)NC1CCC(F)(F)CC1 [Example 147]
Result :: 5.94

Query :: Report its pEC50 with human TRPM8 (Homo sapiens, UniProt Q7Z2W7) as the test system: CC(C)[C@@H]1CC[C@@H](C)C[C@@]1(O)C(=O)NCCc1ccccc1CO [Example 14]
Result :: 7.99

Query :: Report pEC50 from human TRPM8 (Homo sapiens, UniProt Q7Z2W7) testing of CC(C)[C@@H]1CC[C@@H](C)C[C@@]1(O)C(=O)NCC(CCO)c1ccccc1 (stereo partly shown) [Example 66]
Result :: 7.29

Query :: Look up and report measured pEC50 (human TRPM8 (Homo sapiens, UniProt Q7Z2W7)) for the following compound: CC(C)[C@@H]1CC[C@@H](C)C[C@@]1(O)C(=O)NCCOc1ccccc1 [Example 120]
Result :: 7.51

Query :: Give the observed pEC50 of CC(C)[C@@H]1CC[C@@H](C)C[C@@]1(O)C(=O)NCC(O)c1ccccc1Cl (stereo partly shown) [Example 160] for human TRPM8 (Homo sapiens, UniProt Q7Z2W7).
Result :: 7.79

Query :: # return pEC50 of CC(C)[C@@H]1CC[C@@H](C)C[C@@]1(O)C(=O)NCC(NC(=O)CN)c1ccccc1 (single isomer, unassigned) [Example 183] (system: human TRPM8 (Homo sapiens, UniProt Q7Z2W7))
Result :: 8.57

Query :: System human TRPM8 (Homo sapiens, UniProt Q7Z2W7). Read-out pEC50. Item COC(=O)Cc1ccccc1CCNC(=O)[C@]1(O)C[C@H](C)CC[C@H]1C(C)C [Example 77] . Report value.
Result :: 7.05

Query :: Determine reported pEC50 for CC(C)[C@@H]1CC[C@@H](C)C[C@@]1(O)C(=O)NCC1(O)CCOc2ccccc21 (stereo partly shown) [Example 96] ; test system: human TRPM8 (Homo sapiens, UniProt Q7Z2W7).
Result :: 7.99

Query :: // fetch pEC50; item: COc1ccc(CCNC(=O)[C@]2(O)C[C@H](C)CC[C@H]2C(C)C)cc1OC [Example 113] ; system: human TRPM8 (Homo sapiens, UniProt Q7Z2W7)
Result :: 7.00

Query :: Report value only: pEC50, human TRPM8 (Homo sapiens, UniProt Q7Z2W7), CC(C)[C@@H]1CC[C@@H](C)C[C@@]1(O)C(=O)NCC1(c2ccccc2)COC1 [Example 31]
Result :: 7.98

Query :: Tell me pEC50 of CC(=O)O[C@H](CNC(=O)[C@]1(O)C[C@H](C)CC[C@H]1C(C)C)c1ccccc1 [Example 3] when tested on human TRPM8 (Homo sapiens, UniProt Q7Z2W7).
Result :: 7.43

Query :: Fill: pEC50 (human TRPM8 (Homo sapiens, UniProt Q7Z2W7)) for this compound CC(C)[C@@H]1CC[C@@H](C)C[C@@]1(O)C(=O)NCC(=O)c1sccc1Cl [Example 148]
Result :: 8.40

----------
Could you please report measured pEC50 for the items listed next?
Experimental system: human TRPM8 (Homo sapiens, UniProt Q7Z2W7)
Construct: expressed in transfected cells; host or cells: CHO (p658 mammalian expression vector)
Protocol description: In vitro human TRPM8 automated patch-clamp assay (SyncroPatch 384PE, CHO cells)
Assay type: cell-based
Experimental parameters: CHO cells expressing human TRPM8, 28° C.
// pEC50 here means minus log10 of the molar concentration (mol/L)

Query :: Return value of pEC50 for input CC(C)[C@@H]1CC[C@@H](C)C[C@@]1(O)C(=O)NC[C@@H](F)c1ccccc1 , no commentary.
Result :: 5.77

Query :: For CC(C)[C@@H]1CC[C@@H](C)C[C@@]1(O)C(=O)NCCc1ccccc1O , write its pEC50.
Result :: 5.89

Query :: Determine its reported pEC50: COc1cc(C=O)ccc1OC(=O)CNC(=O)[C@]1(O)C[C@H](C)CC[C@H]1C(C)C
Result :: 5.57

Query :: For the compound COc1ccccc1C(F)(F)CNC(=O)[C@]1(O)C[C@H](C)CC[C@H]1C(C)C , give its measured pEC50 value.
Result :: 6.00

Query :: Query pEC50 for CC(C)[C@@H]1CC[C@@H](C)C[C@@]1(O)C(=O)NCCc1cccc(O)c1
Result :: 5.84

----------
Experimental system: pig TRPM8 (Sus scrofa, UniProt F1SM15)
Construct: expressed in transfected cells; host or cells: CHO (pcDNA5/FRT/TO vector; hygromycin B and blasticidin selection)
Sequence (F1SM15 1-1104): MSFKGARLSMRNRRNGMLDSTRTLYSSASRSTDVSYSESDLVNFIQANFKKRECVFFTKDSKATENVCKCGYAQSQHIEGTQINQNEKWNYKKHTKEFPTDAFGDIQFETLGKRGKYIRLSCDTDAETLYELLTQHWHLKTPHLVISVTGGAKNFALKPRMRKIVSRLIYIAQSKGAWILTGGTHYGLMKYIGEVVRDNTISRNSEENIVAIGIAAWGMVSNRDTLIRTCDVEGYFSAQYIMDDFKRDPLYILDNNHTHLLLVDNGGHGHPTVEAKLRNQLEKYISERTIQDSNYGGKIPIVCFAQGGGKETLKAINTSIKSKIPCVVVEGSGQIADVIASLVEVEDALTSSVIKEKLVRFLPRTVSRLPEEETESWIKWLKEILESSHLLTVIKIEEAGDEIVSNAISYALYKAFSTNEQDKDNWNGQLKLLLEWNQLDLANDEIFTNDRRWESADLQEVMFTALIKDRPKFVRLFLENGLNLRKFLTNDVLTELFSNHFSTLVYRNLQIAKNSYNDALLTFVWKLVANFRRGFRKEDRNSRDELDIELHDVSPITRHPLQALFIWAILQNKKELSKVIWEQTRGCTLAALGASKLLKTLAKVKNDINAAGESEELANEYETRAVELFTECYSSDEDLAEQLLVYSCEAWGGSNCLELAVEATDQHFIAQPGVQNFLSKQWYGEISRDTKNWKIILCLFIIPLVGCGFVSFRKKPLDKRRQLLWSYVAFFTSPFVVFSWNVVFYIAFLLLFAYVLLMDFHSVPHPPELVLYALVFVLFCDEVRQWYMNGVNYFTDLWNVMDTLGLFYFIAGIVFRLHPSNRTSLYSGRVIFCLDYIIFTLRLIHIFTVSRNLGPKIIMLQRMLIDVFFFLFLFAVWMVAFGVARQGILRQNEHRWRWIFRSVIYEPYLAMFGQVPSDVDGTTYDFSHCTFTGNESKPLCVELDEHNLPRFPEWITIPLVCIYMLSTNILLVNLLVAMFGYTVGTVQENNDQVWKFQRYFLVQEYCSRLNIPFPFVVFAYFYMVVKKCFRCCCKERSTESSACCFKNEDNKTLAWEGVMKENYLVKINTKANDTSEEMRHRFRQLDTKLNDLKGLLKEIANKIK
Protocol description: In vitro pig TRPM8 automated patch-clamp assay (SyncroPatch 384PE, CHO cells)
Format: cell-based
Experimental parameters: CHO cells expressing pig TRPM8, 28° C.
Criterion: EC50 strictly under 1000 nM. Met: Criterion met. Not met: Criterion not met.

Query :: Is the reported EC50 for CC(C)[C@@H]1CC[C@@H](C)C[C@@]1(O)C(=O)N[C@H](CCO)c1ccccc1 [Example 86] strictly below 1000 nM?
Result :: Criterion not met

Query :: Answer whether the compound CC(C)[C@@H]1CC[C@@H](C)C[C@@]1(O)C(=O)NCC(CO)c1ccccc1 (single isomer, unassigned) [Example 89] has EC50 strictly less than 1000 nM
Result :: Criterion not met

Query :: For this compound, is EC50 lower than 1000 nM? CC(C)[C@@H]1CC[C@@H](C)C[C@@]1(O)C(=O)NCCc1ccccc1CCO [Example 52]
Result :: Criterion met

Query :: Hello, is EC50 of the following compound strictly smaller than 1000 nM? COC(=O)CO[C@H](CNC(=O)[C@]1(O)C[C@H](C)CC[C@H]1C(C)C)c1ccccc1 [Example 57]
Result :: Criterion not met

Query :: # check: EC50 < 1000 nM for CC(C)[C@@H]1CC[C@@H](C)C[C@@]1(O)C(=O)NCC1COc2ccccc21 (some centres unmarked) [Example 162]
Result :: Criterion not met

Query :: Regarding CC(CNC(=O)[C@]1(O)C[C@H](C)CC[C@H]1C(C)C)c1ccccc1 (some centres unmarked) [Example 156] , kindly confirm whether its EC50 is beneath 1000 nM.
Result :: Criterion not met

Query :: Determine if CC(C)[C@@H]1CC[C@@H](C)C[C@@]1(O)C(=O)NCC(=O)c1cccc(O)c1 [Example 39] shows EC50 strictly lower than 1000 nM.
Result :: Criterion met
